The values you see were collected from PubChem BioAssay AID2060883.

# IC50 listing for each entry below
system: 843782-103-R-J1-PDC complex spheroid viability; experiment: Anticancer human tumor 843782-103-R-J1-PDC patient-derived lung adenocarcinoma cell line growth inhibition [RAS]; details: curve of first compound; second compound 0.000949 µM

The cases that follow already have their IC50 on record.
molecule: CCN1CCN(Cc2ccc(Nc3ncc(F)c(-c4cc(F)c5nc(C)n(C(C)C)c5c4)n3)nc2)CC1 + CCn1c(-c2cc(N3CCN(C)CC3)cnc2C(C)OC)c2c3cc(ccc31)-c1csc(n1)CC(NC(=O)C1CC1C)C(=O)N1CCCC(N1)C(=O)OCC(C)(C)C2
IC50: 531 nM
--
molecule: C=CC(=O)N1CCN(c2nc(OCC3CCCN3C)nc3c(F)c(-c4nc(N)cc(C)c4C(F)(F)F)c(Cl)cc23)C(C)C1 (centres undefined) + CCn1c(-c2cc(N3CCN(C)CC3)cnc2C(C)OC)c2c3cc(ccc31)-c1csc(n1)CC(NC(=O)C1CC1C)C(=O)N1CCCC(N1)C(=O)OCC(C)(C)C2
IC50: > 1000 nM
--
molecule: CCN1CCN(Cc2ccc(Nc3ncc(F)c(-c4cc(F)c5nc(C)n(C(C)C)c5c4)n3)nc2)CC1 + CCn1c(-c2cccnc2C(C)OC)c2c3cc(ccc31)N1CCOC(CC(NC(=O)C(C(C)C)N(C)C(=O)C3(F)CCN(C(=O)C#CC(C)(C)N(C)C)CC3)C(=O)N3CCCC(N3)C(=O)OCC(C)(C)C2)C1
IC50: 197 nM

Consider the record given below.
Which IC50 reading was recorded for the molecule C[C@@H](NC(=O)c1ncnc(N)c1Cl)c1ncc(C(=O)Nc2cc(C(F)(F)F)c(Cl)cn2)s1 + CCn1c(-c2cccnc2C(C)OC)c2c3cc(ccc31)N1CCOC(CC(NC(=O)C(C(C)C)N(C)C(=O)C3(F)CCN(C(=O)C#CC(C)(C)N(C)C)CC3)C(=O)N3CCCC(N3)C(=O)OCC(C)(C)C2)C1 ?
> 10000 nM

---

test system: 843782-103-R-J1-PDC complex spheroid viability; assay: Anticancer human tumor 843782-103-R-J1-PDC cell line growth inhibition [RAS]; conditions: second compound 0.000949 µM; first compound 10 µM; stronger effect = lower value;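 also: viability read after seven days of compound exposure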
# viability, T/C listing for each entry below
Response body: numeric value in %, unit text excluded.

compound: NC1c2ccccc2OC12CCN(c1cnc3c(N4CCCc5ncccc54)n[nH]c3n1)CC2 (configuration not stated) + CCn1c(-c2cc(N3CCN(C)CC3)cnc2C(C)OC)c2c3cc(ccc31)-c1csc(n1)CC(NC(=O)C1CC1C)C(=O)N1CCCC(N1)C(=O)OCC(C)(C)C2
viability, T/C, %: 12.2

Consider the record given below.
Which viability, T/C reading was recorded for the compound CC(Nc1ccc2c(c1)OCCn1cc(N3C(=O)OCC3C(F)F)nc1-2)C(N)=O (configuration not stated) + CCn1c(-c2cccnc2C(C)OC)c2c3cc(ccc31)N1CCOC(CC(NC(=O)C(C(C)C)N(C)C(=O)C3(F)CCN(C(=O)C#CC(C)(C)N(C)C)CC3)C(=O)N3CCCC(N3)C(=O)OCC(C)(C)C2)C1 ?
7.59

---

tested on: 843782-103-R-J1-PDC complex spheroid viability; experiment: Anticancer human tumor 843782-103-R-J1-PDC cell line growth inhibition [RAS]; settings: second compound 0.00949 µM; first compound 0.0316 µM; stronger effect = lower value;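 also: viability read after seven days of compound exposure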
reportedProperty: viability, T/C (%)
Response body: numeric value in %, unit text excluded.

The cases that follow already have their viability, T/C on record.
molecule: C[C@@H](NC(=O)c1ncnc(N)c1Cl)c1ncc(C(=O)Nc2cc(C(F)(F)F)c(Cl)cn2)s1 + CCn1c(-c2cccnc2C(C)OC)c2c3cc(ccc31)N1CCOC(CC(NC(=O)C(C(C)C)N(C)C(=O)C3(F)CCN(C(=O)C#CC(C)(C)N(C)C)CC3)C(=O)N3CCCC(N3)C(=O)OCC(C)(C)C2)C1
system: 843782-103-R-J1-PDC complex spheroid viability
viability, T/C / %: 76.6
--
molecule: Cc1nc(N2CCC3(CC2)COC(C)C3N)c(CO)nc1Sc1ccnc(N)c1Cl (centres undefined) + CCn1c(-c2cc(N3CCN(C)CC3)cnc2C(C)OC)c2c3cc(ccc31)-c1csc(n1)CC(NC(=O)C1CC1C)C(=O)N1CCCC(N1)C(=O)OCC(C)(C)C2
system: 843782-103-R-J1-PDC complex spheroid viability
viability, T/C / %: 26.4
--
molecule: C=CC(=O)N1CCN(c2nc(OCC3CCCN3C)nc3c(F)c(-c4nc(N)cc(C)c4C(F)(F)F)c(Cl)cc23)C(C)C1 (centres undefined) + CCn1c(-c2cccnc2C(C)OC)c2c3cc(ccc31)N1CCOC(CC(NC(=O)C(C(C)C)N(C)C(=O)C3(F)CCN(C(=O)C#CC(C)(C)N(C)C)CC3)C(=O)N3CCCC(N3)C(=O)OCC(C)(C)C2)C1
system: 843782-103-R-J1-PDC complex spheroid viability
viability, T/C / %: 77.5

Query the reported viability, T/C for 843782-103-R-J1-PDC complex spheroid viability; item: NC1c2ccccc2OC12CCN(c1cnc3c(N4CCCc5ncccc54)n[nH]c3n1)CC2 (centres undefined) + CCn1c(-c2cccnc2C(C)OC)c2c3cc(ccc31)N1CCOC(CC(NC(=O)C(C(C)C)N(C)C(=O)C3(F)CCN(C(=O)C#CC(C)(C)N(C)C)CC3)C(=O)N3CCCC(N3)C(=O)OCC(C)(C)C2)C1
27.7
